From: ChEMBL document CHEMBL5303304

- Test system: HEK-293T
- assay_method_text: Incucyte cell viability with HEK293T; note: unitless GR value; below 1 slowed growth and below 0 cell loss
- Format: toxicity, cell-based
- experimental_setup: human, 0 h, 10 µM, compound concentration 10 uM, replicate number 1
endpoint_name: Growth Rate
Provide a numeric answer; units are not to be included.

The examples below pair each entry with its known result.
>>> measured_value("CCN1CCN(Cc2ccc(Nc3ncc(F)c(-c4cc(F)c5nc(C)n(C(C)C)c5c4)n3)nc2)CC1")
-1
>>> measured_value("CC(=O)c1ccc2c(c1)/C(=C(/Nc1cccc(C#N)c1)c1ccc3c(c1)OCCO3)C(=O)N2")
-0.8
>>> measured_value("CN1CCN(c2nc(N)c3ccccc3n2)CC1")
0.4
>>> measured_value("CCc1ccc(N(CC(C)C)S(=O)(=O)c2ccc(OCC3CCOCC3)c(CO)c2)cc1")
-0.35
>>> measured_value("CCOC(=O)c1ccc(CN(Cc2ccc(-c3cccc(S(C)(=O)=O)c3)cc2)S(=O)(=O)c2c(C)cc(C)cc2C)o1")
-0.26
>>> measured_value("CC(=O)c1c(C)c2cnc(Nc3ccc(N4CCNCC4)cn3)nc2n(C2CCCC2)c1=O")
0.2

Query: Note down Growth Rate recorded for O=C(O)CCC/C=C\C[C@@H]1[C@@H](/C=C/[C@@H](O)COc2cccc(C(F)(F)F)c2)[C@H](O)C[C@@H]1O
Reply: -0.11

Query: Supply Growth Rate value. Item: Cc1ccc(S(=O)(=O)O)cc1.Cn1cc(Nc2nccc(N3CC4CCC(C3)N4C(=O)[C@@H]3CC3(F)F)n2)cn1
Reply: 0.13

Query: Return the recorded Growth Rate value; entry: COc1nc2ccc([C@@](O)(c3ccccc3)C3CCN(C(C)=O)CC3)cc2c(Cl)c1Cc1ccc(-n2cccn2)cc1
Reply: -0.96

Query: Supply Growth Rate value. Item: CC(N)C1CCC(C(=O)Nc2ccncc2)CC1 (stereo not drawn)
Reply: -0.35

Query: Let me know recorded Growth Rate for CCN(C(=O)c1cc(F)ccc1Oc1cncnc1N1CC2(CCN(C[C@H]3CC[C@H](NS(=O)(=O)CC)CC3)CC2)C1)C(C)C , thanks.
Reply: -0.33

Query: Report measured Growth Rate; entry is CCc1nc(-c2cccc(C)c2)c(-c2ccncc2)s1
Reply: -0.67

Query: In one line, give reported Growth Rate of the entry CCOC(=O)c1c(/C(C#N)=C\N)c2ccc(Cl)c(Cl)c2n1C .
Reply: 0.22
